# Tested on: cell cycle progression in M-phase
# assayDetails: Analysis of cell cycle status: M-phase block (phospho-Histone 3 serine 10, ArrayScan)
# Type: cell-based
# conditionSet: 5 hours incubation; vs 500 nM vinblastine (100% M-phase block) and DMSO (0%); read-out: M-phase block activities (IC50 range)
Would you mind telling me the reported IC50 of each entry?

Record IC50 per entry; entries follow.
1. CC(=O)c1cn(-c2ccc(NC(N)=O)cc2Cl)c2ccc(Cl)cc12
2. C=CCNc1ccc(-n2c3c(c4ccccc42)C(=O)CCC3)c(C(F)(F)F)c1

(A)
1. 0.5 to 5 µM
2. 0.5 to 5 µM

* * *

# System: cell cycle progression in M-phase
# assayDetails: Analysis of cell cycle status: M-phase block (phospho-Histone 3 serine 10, ArrayScan)
# Assay type: cell-based
# conditionSet: 5 hours incubation; vs 500 nM vinblastine (100% M-phase block) and DMSO (0%); read-out: M-phase block activities (IC50 range)
pIC50: −log10 of the molar value.
Would you mind telling me the reported pIC50 of each entry?

Solved entries (count: 2):
COCCNc1cc(-n2cc(C(C)=O)c3ccccc32)ccc1C(N)=O; 5.30 to 6.30
NC(=O)Nc1ccc(-n2c3c(c4cc(Cl)ccc42)C(=O)CCC3)c(Cl)c1; > 6.30

Record pIC50 per entry; entries follow.
1. CC(=O)c1cn(-c2ccc(N)cc2Cl)c2cc(Cl)ccc12
2. CC(=O)NC(=O)Nc1ccc(-n2c3c(c4ccccc42)C(=O)CCC3)c(Cl)c1
3. COc1cc(-n2cc(C(C)=O)c3ccccc32)ccc1C(N)=O
4. NC(=O)c1ccc(-n2c3c(c4ccccc42)C(=O)CCC3)c(C(F)(F)F)c1
5. CC(=O)c1cn(-c2ccc(C(N)=O)cc2Cl)c2cc(Cl)ccc12
6. CC(=O)c1cn(-c2ccc(N)cc2Br)c2ccccc12

(A)
1. 5.30 to 6.30
2. > 6.30
3. > 6.30
4. > 6.30
5. > 6.30
6. 4.30 to 5.30
